Origin of measurements: the M2OR odorant receptor database

- system under test: OR13C5 (Homo sapiens) (UniProt Q8NGS8)
- Sequence (Q8NGS8 whole entry): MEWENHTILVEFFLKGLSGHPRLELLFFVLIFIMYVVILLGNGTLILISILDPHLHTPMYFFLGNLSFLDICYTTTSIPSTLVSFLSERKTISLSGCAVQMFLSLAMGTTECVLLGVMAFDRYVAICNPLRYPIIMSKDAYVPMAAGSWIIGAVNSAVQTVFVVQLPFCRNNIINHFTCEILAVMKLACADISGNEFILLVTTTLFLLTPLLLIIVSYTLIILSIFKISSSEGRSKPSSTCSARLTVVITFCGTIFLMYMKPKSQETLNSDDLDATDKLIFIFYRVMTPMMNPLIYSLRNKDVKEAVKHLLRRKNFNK
- details: stereoisomer not certain
Hi! Could you answer with just one of these? active, inactive

Enquiry: Hi team, can someone confirm the assay call for CCC1OC(C)=C(O)C1=O (centres undefined) ?
Return: inactive

----------
- system under test: OR51D1 (Homo sapiens) (UniProt Q8NGF3)
- Sequence (whole entry): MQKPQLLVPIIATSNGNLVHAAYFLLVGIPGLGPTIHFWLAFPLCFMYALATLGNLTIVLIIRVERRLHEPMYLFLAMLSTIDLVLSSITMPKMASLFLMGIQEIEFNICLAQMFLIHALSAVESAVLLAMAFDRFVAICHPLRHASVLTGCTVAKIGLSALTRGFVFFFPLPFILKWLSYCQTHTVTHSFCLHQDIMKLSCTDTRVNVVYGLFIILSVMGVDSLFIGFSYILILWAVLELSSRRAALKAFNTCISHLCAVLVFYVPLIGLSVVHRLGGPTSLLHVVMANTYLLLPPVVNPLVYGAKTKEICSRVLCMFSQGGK
- details: stereoisomer not certain
measurement label: odorant receptor agonist call

Example compounds with recorded odorant receptor agonist call:
CCC1OC(=O)C(O)=C1C (stereo not drawn)    inactive
CC1=NC(C)C(C)S1 (stereo not drawn)    inactive
CC1=C(O)C(=O)OC1C (stereo not drawn)    inactive
Cc1cnc(C)c(C)n1    inactive
CC(=O)c1c(C)c([N+](=O)[O-])c(C(C)(C)C)c([N+](=O)[O-])c1C    inactive

Entry CC1CCCCCCCCCCCCC(=O)C1 (stereo not drawn) — recorded odorant receptor agonist call = inactive

Entry CCCCCC(S)C(C)CO (stereo not drawn) — recorded odorant receptor agonist call = inactive

Entry CCCC(S)CCOC(C)=O (stereo not drawn) — recorded odorant receptor agonist call = inactive

----------
- Tested on: OR8B8 L101P
- Sequence (as listed by the source, stated change not applied): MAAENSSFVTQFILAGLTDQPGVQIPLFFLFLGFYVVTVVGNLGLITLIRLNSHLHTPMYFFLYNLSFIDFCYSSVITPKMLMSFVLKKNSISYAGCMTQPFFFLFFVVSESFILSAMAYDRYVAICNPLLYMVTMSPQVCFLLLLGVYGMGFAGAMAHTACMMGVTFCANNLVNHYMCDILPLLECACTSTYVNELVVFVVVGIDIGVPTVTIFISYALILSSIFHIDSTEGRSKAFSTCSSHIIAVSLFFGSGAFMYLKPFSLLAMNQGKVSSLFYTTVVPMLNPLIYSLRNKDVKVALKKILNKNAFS
- details: stereoisomer not certain
measurement label: odorant receptor agonist call

Example molecules with recorded odorant receptor agonist call:
CC1=C(O)C(=O)OC1C (stereo unspecified)    inactive
CC1=C(O)C(=O)C(C)O1 (stereo unspecified)    inactive
CCCCCCC=CCCC=O    inactive
CC1=NC(C)C(C)S1 (stereo unspecified)    inactive
CCCC(S)CCOC(C)=O (stereo unspecified)    inactive

Entry CCC1OC(=O)C(O)=C1C (stereo unspecified) — recorded odorant receptor agonist call = inactive

----------
- System: OR2BB
- Sequence (whole entry): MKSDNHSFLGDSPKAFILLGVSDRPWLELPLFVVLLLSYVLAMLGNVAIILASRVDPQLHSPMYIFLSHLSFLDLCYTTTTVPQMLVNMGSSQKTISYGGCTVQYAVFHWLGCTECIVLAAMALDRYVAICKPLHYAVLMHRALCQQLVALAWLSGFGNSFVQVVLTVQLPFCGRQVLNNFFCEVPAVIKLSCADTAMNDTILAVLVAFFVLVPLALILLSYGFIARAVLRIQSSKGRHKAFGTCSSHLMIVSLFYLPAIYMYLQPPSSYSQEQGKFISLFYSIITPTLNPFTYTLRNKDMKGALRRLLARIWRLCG
- details: stereoisomer not certain
Hi! Could you answer with just one of these? y (active), n (inactive)

Please review the following examples before continuing.
CC1=NC(C)C(C)S1 (stereo not drawn)    n
CC1=C(O)C(=O)OC1C (stereo not drawn)    n
CC1=C(O)C(=O)C(C)O1 (stereo not drawn)    n
CCC1OC(C)=C(O)C1=O (stereo not drawn)    n

Enquiry: Hi team, can someone confirm the assay call for c1coc(CSSCc2ccco2)c1 ?
Return: y

Enquiry: Hi team, can someone confirm the assay call for CCC1OC(=O)C(O)=C1C (stereo not drawn) ?
Return: n

Enquiry: Hi team, can someone confirm the assay call for c1ccc2ncccc2c1 ?
Return: y

Enquiry: Hi team, can someone confirm the assay call for O=c1ccc2ccccc2o1 ?
Return: y

----------
- system under test: UniProt E9Q9Z6
- Sequence (E9Q9Z6 as listed by the source): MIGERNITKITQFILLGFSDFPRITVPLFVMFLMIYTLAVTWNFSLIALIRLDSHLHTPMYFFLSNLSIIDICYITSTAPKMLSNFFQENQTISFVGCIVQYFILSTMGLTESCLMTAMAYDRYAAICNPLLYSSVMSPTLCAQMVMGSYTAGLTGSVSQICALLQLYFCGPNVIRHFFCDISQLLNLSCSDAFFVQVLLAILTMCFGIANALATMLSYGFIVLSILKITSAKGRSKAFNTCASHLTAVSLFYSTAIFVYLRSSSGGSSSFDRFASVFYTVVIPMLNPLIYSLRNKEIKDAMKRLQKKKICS
- details: stereoisomer not certain
Hi! Could you answer with just one of these? active, inactive

Please review the following examples before continuing.
O=C1CCCCCC=CCCCCCCCCO1    inactive
O=C1CCCCCCCCCC1    inactive

Continue with the compound presented below.
Enquiry: Hi team, can someone confirm the assay call for O=C1CCCC=CCCCCCCCCCC1 ?
Return: active

----------
- system under test: OR2V2 (Homo sapiens) (UniProt Q96R30)
- Sequence (whole entry): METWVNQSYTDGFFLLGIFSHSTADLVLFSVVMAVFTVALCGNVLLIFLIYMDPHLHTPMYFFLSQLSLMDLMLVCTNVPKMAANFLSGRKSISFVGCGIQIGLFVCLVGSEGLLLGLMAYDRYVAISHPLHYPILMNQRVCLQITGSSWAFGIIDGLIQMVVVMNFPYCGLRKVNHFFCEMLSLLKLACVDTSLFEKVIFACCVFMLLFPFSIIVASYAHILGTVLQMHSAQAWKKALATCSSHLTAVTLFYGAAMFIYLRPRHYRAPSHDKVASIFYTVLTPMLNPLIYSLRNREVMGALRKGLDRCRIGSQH
- details: stereoisomer not certain
measurement label: odorant receptor agonist call

Example compounds with recorded odorant receptor agonist call:
CCCCC(S)C(C)CO (stereo not given)    inactive
CC(CO)CS (stereo not given)    inactive
CC1=C(O)C(=O)OC1C (stereo not given)    inactive
CC(=O)c1c(C)c([N+](=O)[O-])c(C(C)(C)C)c([N+](=O)[O-])c1C    inactive
CCC1OC(=O)C(O)=C1C (stereo not given)    inactive
CCCCCCC=CCCC=O    inactive
CC1=NC(C)C(C)S1 (stereo not given)    inactive
CCCCCC(=O)C(C)C(C)=O (stereo not given)    inactive

Entry CCC1OC(C)=C(O)C1=O (stereo not given) — recorded odorant receptor agonist call = inactive

Entry CC1CCCCCCCCCCCCC(=O)C1 (stereo not given) — recorded odorant receptor agonist call = inactive

----------
- system under test: OR7G1 (Homo sapiens) (UniProt Q8NGA0)
- Sequence (Q8NGA0 whole entry): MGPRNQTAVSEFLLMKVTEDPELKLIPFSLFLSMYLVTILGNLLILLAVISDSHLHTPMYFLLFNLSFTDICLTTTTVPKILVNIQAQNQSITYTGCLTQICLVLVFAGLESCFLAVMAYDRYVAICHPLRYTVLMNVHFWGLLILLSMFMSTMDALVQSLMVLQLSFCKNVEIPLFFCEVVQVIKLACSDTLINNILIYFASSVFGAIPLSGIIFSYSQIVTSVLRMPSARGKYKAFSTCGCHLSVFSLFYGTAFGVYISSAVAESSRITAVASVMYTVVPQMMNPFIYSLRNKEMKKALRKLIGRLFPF
- details: stereoisomer not certain
measurement label: odorant receptor agonist call

Example compounds with recorded odorant receptor agonist call:
CCCCCC(S)C(C)CO (configuration not stated)    inactive
CCC1OC(C)=C(O)C1=O (configuration not stated)    inactive
CC1CCCCCCCCCCCCC(=O)C1 (configuration not stated)    inactive
CC1=NC(C)C(C)S1 (configuration not stated)    inactive
CCCCCCC=CCCC=O    inactive

Entry CC(=O)c1c(C)c([N+](=O)[O-])c(C(C)(C)C)c([N+](=O)[O-])c1C — recorded odorant receptor agonist call = inactive

Entry CCC(S)C(C)CO (configuration not stated) — recorded odorant receptor agonist call = inactive

Entry CCC1OC(=O)C(O)=C1C (configuration not stated) — recorded odorant receptor agonist call = inactive

Entry CC1=C(O)C(=O)C(C)O1 (configuration not stated) — recorded odorant receptor agonist call = inactive

Entry CCCC(S)CCOC(C)=O (configuration not stated) — recorded odorant receptor agonist call = inactive

Entry CCCCC(S)C(C)CO (configuration not stated) — recorded odorant receptor agonist call = inactive

Entry CC(CO)CS (configuration not stated) — recorded odorant receptor agonist call = inactive

----------
- system under test: OR1A1 (Homo sapiens)
- details: stereoisomer not certain
Hi! Could you answer with just one of these? active, inactive

Please review the following examples before continuing.
c1cnc2c(c1)ccc1cccnc12    inactive
CCCSSCCC    inactive

Enquiry: Hi team, can someone confirm the assay call for CCCC1CCCC(=O)O1 (stereo not drawn) ?
Return: inactive

Enquiry: Hi team, can someone confirm the assay call for CC(CC=O)CCCC(C)(C)O (stereo not drawn) ?
Return: active

Enquiry: Hi team, can someone confirm the assay call for CCO ?
Return: inactive

Enquiry: Hi team, can someone confirm the assay call for Cc1cccc(O)c1 ?
Return: inactive

----------
- Test system: O13H1 Y266S
- Sequence (as listed by the source, stated change not applied): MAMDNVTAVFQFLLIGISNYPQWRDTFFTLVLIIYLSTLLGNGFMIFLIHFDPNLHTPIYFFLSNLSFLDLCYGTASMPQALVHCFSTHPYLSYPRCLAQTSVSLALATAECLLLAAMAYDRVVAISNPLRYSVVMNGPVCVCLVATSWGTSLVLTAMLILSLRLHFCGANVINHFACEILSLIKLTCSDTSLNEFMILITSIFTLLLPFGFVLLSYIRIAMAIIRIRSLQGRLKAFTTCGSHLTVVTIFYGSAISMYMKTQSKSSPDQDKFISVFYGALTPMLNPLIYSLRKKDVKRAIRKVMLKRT
- details: stereoisomer not certain
measurement label: odorant receptor agonist call

CCCCCCC=CCCC=O    inactive
CC1=NC(C)C(C)S1 (stereo not given)    inactive
Cc1cnc(C)c(C)n1    inactive
CCC1OC(C)=C(O)C1=O (stereo not given)    inactive

// switching to the query compound
Entry CC1=C(O)C(=O)C(C)O1 (stereo not given) — recorded odorant receptor agonist call = inactive

----------
- system under test: OR2H2 (Homo sapiens) (UniProt O95918)
- Sequence (O95918 whole entry): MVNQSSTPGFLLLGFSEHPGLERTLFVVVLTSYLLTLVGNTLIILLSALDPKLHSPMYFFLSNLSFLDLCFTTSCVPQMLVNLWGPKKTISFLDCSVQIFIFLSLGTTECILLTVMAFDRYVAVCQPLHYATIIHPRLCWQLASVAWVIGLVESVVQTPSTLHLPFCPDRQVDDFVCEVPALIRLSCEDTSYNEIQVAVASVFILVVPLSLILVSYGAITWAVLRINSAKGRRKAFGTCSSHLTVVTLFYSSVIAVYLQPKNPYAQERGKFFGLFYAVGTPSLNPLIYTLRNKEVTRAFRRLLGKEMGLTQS
- details: stereoisomer not certain
Hi! Could you answer with just one of these? True for active, False for inactive

Please review the following examples before continuing.
CCCCCC(=O)C(C)C(C)=O (centres undefined)    False
CC1CCCCCCCCCCCCC(=O)C1 (centres undefined)    False
CCC1OC(=O)C(O)=C1C (centres undefined)    False
CCCCCC=CC=O    True
CCCCCCCCO    False

Enquiry: Hi team, can someone confirm the assay call for CCC(S)C(C)CO (centres undefined) ?
Return: False

Enquiry: Hi team, can someone confirm the assay call for CCCCCC=O ?
Return: False

Enquiry: Hi team, can someone confirm the assay call for CCCCCC(S)C(C)CO (centres undefined) ?
Return: False

Enquiry: Hi team, can someone confirm the assay call for CCCCCCCCCCCC=O ?
Return: False

----------
- system under test: UniProt Q8VGX3
- Sequence (Q8VGX3 as listed by the source): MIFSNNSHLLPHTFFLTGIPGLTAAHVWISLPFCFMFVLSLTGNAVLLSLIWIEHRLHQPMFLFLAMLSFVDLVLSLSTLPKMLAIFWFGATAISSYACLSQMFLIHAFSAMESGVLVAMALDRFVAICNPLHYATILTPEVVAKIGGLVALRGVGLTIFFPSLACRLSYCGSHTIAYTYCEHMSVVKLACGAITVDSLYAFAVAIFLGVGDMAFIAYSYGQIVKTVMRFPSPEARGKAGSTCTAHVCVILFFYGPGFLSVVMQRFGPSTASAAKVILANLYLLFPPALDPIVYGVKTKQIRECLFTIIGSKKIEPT
- details: stereoisomer not certain
measurement label: odorant receptor agonist call

CC(C)CCN    inactive
CCCCCCCCCO    inactive
CC=C(C)C=O    inactive
CCN(CC)CC    inactive
COc1nccnc1C(C)C    inactive
Cc1ccccc1OC(=O)C(C)C    inactive
CCC=CCCC=CC=O    inactive
CC(=O)C=CC1=C(C)CCCC1(C)C    inactive
CCc1occc(=O)c1O    inactive
CCCCCCCCCCCO    inactive

The observed odorant receptor agonist call for CC1(C)CC(=O)CC(=O)C1 when tested with UniProt Q8VGX3 stands at inactive

The observed odorant receptor agonist call for CC(=O)Oc1ccccc1 when tested with UniProt Q8VGX3 stands at inactive

The observed odorant receptor agonist call for CNc1ccccc1C(=O)OC when tested with UniProt Q8VGX3 stands at inactive

The observed odorant receptor agonist call for O=C(O)CCCCCBr when tested with UniProt Q8VGX3 stands at inactive
